system: 926638-142-R-J1-PDC complex spheroid viability; assay: Anticancer human tumor 926638-142-R-J1-PDC patient-derived endometrial carcinoma cell line growth inhibition [POLQ]; settings: second compound 1 µM; first compound 0.1 µM; active compounds read low;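 note: spheroids exposed to drugs for one week before readout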
Rule: viability, T/C below 70% gives MET. Equal to or above 70% gives NOT MET.

- molecule: "CC1COCCN1c1cc(C2(S(C)(=N)=O)CC2)nc(-c2ccnc3[nH]ccc23)n1 (stereo not given) + COC1C(OC(N)=O)C(O)C(Oc2ccc3c(O)c(NC(=O)c4ccc(O)c(CC=C(C)C)c4)c(=O)oc3c2C)OC1(C)C"
  assignedLabel: "NOT MET"
- molecule: "O=C(c1cc(Cc2n[nH]c(=O)c3ccccc23)ccc1F)N1CCN(C(=O)C2CC2)CC1 + COC1C(OC(N)=O)C(O)C(Oc2ccc3c(O)c(NC(=O)c4ccc(O)c(CC=C(C)C)c4)c(=O)oc3c2C)OC1(C)C"
  assignedLabel: "NOT MET"
- molecule: "COc1cccc2c1C(=O)c1c(O)c3c(c(O)c1C2=O)CC(O)(C(=O)CO)CC3OC1CC(N)C(O)C(C)O1 (stereo not given) + Nc1ccc(C#CCN(C(=O)Cc2ncc(C(F)(F)F)cc2C(F)(F)F)c2ccc(F)cc2)nn1"
  assignedLabel: "MET"
- molecule: "O=c1[nH]cc(F)c(=O)[nH]1 + Cc1cccc(N(C)C(=O)C2C(O)CCN2c2nc(C)cc(C(F)(F)F)c2C#N)c1"
  assignedLabel: "NOT MET"
- molecule: "CCc1cc2c(N3CCc4c(cc(Cn5ccnc5)cc4-c4cn(C)nc4C(F)(F)F)C3=O)ccnc2c(OC)n1 + Nc1ccc(C#CCN(C(=O)Cc2ncc(C(F)(F)F)cc2C(F)(F)F)c2ccc(F)cc2)nn1"
  assignedLabel: "MET"
- molecule: "COc1cccc2c1C(=O)c1c(O)c3c(c(O)c1C2=O)CC(O)(C(=O)CO)CC3OC1CC(N)C(O)C(C)O1 (stereo not given) + COC1C(OC(N)=O)C(O)C(Oc2ccc3c(O)c(NC(=O)c4ccc(O)c(CC=C(C)C)c4)c(=O)oc3c2C)OC1(C)C"
  assignedLabel: "MET"
- molecule: "COc1ccc([C@@H](O)c2cc(-c3ncnc4cc(N5CCOCC5)ccc34)c(F)cc2Cl)nn1 + Cc1cccc(N(C)C(=O)C2C(O)CCN2c2nc(C)cc(C(F)(F)F)c2C#N)c1"
  assignedLabel: "NOT MET"
- molecule: "CCCS(=O)(=O)Nc1ccc(F)c(C(=O)c2c[nH]c3ncc(-c4ccc(Cl)cc4)cc23)c1F + Cc1cccc(N(C)C(=O)C2C(O)CCN2c2nc(C)cc(C(F)(F)F)c2C#N)c1"
  assignedLabel: "NOT MET"
